Consider the following molecules; for each one, report its inhibition at 1 µM.
# target_entity: P110β (Homo sapiens, UniProt P42338)
# Sequence (P42338 whole entry, canonical isoform): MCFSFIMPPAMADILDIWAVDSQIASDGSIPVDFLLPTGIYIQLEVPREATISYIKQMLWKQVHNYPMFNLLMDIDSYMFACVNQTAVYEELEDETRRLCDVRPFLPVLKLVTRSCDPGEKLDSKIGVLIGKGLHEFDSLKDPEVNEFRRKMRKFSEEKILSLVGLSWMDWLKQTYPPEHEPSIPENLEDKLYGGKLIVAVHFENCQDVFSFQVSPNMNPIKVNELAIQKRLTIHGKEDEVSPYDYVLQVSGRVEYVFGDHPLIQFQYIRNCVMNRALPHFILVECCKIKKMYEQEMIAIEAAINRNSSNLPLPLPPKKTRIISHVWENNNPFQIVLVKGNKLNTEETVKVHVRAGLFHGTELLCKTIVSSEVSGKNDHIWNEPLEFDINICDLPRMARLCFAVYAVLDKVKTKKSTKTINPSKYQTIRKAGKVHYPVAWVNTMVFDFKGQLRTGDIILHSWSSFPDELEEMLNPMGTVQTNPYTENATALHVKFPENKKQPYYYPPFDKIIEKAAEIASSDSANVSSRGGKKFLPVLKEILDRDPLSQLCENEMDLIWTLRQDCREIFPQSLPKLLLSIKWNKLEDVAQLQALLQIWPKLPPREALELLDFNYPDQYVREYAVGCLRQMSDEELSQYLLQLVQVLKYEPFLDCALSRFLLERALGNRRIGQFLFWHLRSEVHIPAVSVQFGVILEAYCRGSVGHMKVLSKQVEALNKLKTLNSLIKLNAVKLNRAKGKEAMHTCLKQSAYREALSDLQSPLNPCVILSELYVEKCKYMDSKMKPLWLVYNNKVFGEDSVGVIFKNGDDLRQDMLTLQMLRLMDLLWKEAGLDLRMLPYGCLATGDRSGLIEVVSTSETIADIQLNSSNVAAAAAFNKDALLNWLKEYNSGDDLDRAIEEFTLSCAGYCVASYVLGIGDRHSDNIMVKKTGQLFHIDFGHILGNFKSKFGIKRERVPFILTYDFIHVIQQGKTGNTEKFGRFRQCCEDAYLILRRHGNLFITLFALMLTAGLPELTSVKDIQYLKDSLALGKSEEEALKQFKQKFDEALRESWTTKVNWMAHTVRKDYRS
# Sequence (P27986 whole entry partner, canonical isoform): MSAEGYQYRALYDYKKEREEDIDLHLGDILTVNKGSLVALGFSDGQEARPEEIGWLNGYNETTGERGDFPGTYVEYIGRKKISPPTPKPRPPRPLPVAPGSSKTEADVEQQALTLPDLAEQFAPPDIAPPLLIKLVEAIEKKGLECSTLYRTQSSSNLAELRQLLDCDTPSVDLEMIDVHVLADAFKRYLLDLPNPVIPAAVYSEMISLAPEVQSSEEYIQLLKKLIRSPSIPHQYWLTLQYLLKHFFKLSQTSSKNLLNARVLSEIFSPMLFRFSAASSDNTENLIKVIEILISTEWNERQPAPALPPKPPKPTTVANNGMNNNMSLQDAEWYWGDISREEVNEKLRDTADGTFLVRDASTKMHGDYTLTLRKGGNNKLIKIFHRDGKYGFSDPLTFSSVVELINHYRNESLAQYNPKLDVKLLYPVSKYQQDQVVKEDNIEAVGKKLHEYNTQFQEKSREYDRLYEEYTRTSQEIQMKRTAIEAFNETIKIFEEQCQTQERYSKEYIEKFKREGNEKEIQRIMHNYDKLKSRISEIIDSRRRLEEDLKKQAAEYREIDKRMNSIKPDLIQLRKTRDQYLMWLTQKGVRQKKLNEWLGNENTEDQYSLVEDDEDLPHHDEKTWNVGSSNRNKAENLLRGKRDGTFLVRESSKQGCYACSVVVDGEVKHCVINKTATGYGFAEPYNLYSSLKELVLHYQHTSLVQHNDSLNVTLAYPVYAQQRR
# test_summary: Fluorescent (HTRF) determination of PI3K enzyme activity, β isoform
# Assay type: biochemical
# Excerpt: Assay 1: Fluorescent determination of PI3Kinase Kinase enzyme activity Phosphoinositide 3 kinases (PI3K) belong to a class of lipid kinases that play a critical role in the regulation of several key cellular processes. […] The homogenous time resolved fluorescence (HTRF) assay allows detection of 3,4,5-triphosphate (PIP3) formed as a result of phosphorylation of phosphotidylinositol 4,5-biphosphate (PIP2) by PI3K isoforms such as α, β, γ or δ. […]

molecule	measured
CC(c1oc2ccccc2c(=O)c1-c1cccc(F)c1)n1nc(-c2ccc(OC(F)(F)F)cc2)c2c(N)ncnc21 (stereo not shown) [Example 145]	25 to 50%

For each entry beneath this line, provide reported inhibition at 1 µM.
1. COc1c(F)cc(-c2nn(Cc3oc4ccc(F)cc4c(=O)c3-c3cccc(F)c3)c3ncnc(N)c23)cc1F [Example 127]
2. Cc1n[nH]c2cc(-c3nn(C(C)c4oc5ccc(F)cc5c(=O)c4-c4ccccc4)c4ncnc(N)c34)ccc12 (stereo not shown) [Example 105]
3. CCOc1ccc(-c2nn(C(C)c3oc4ccccc4c(=O)c3-c3cccc(F)c3)c3ncnc(N)c23)cc1F (stereo not shown) [Example 143]
4. COc1c(F)cc(-c2nn(C(C)c3oc4ccccc4c(=O)c3-c3cccc(F)c3)c3ncnc(N)c23)cc1F (stereo not shown) [Example 126]
5. O=c1c(-c2ccccc2)c(Cn2cnc3c(Cl)ncnc32)oc2ccc(Br)cc12 [Example 10]
6. COc1c(C)cc(-c2nn(C(C)c3oc4ccccc4c(=O)c3-c3cccc(F)c3)c3ncnc(N)c23)cc1C (stereo not shown) [Example 131]

-- reply
1. 50 to 100%
2. 50 to 100%
3. 25 to 50%
4. < 25%
5. < 25%
6. < 25%

----------
Kindly supply the reported inhibition values for the records listed here.
# target_entity: P110 δ/Pi3K δ (Homo sapiens)
# Sequence (O00329 whole entry, canonical isoform): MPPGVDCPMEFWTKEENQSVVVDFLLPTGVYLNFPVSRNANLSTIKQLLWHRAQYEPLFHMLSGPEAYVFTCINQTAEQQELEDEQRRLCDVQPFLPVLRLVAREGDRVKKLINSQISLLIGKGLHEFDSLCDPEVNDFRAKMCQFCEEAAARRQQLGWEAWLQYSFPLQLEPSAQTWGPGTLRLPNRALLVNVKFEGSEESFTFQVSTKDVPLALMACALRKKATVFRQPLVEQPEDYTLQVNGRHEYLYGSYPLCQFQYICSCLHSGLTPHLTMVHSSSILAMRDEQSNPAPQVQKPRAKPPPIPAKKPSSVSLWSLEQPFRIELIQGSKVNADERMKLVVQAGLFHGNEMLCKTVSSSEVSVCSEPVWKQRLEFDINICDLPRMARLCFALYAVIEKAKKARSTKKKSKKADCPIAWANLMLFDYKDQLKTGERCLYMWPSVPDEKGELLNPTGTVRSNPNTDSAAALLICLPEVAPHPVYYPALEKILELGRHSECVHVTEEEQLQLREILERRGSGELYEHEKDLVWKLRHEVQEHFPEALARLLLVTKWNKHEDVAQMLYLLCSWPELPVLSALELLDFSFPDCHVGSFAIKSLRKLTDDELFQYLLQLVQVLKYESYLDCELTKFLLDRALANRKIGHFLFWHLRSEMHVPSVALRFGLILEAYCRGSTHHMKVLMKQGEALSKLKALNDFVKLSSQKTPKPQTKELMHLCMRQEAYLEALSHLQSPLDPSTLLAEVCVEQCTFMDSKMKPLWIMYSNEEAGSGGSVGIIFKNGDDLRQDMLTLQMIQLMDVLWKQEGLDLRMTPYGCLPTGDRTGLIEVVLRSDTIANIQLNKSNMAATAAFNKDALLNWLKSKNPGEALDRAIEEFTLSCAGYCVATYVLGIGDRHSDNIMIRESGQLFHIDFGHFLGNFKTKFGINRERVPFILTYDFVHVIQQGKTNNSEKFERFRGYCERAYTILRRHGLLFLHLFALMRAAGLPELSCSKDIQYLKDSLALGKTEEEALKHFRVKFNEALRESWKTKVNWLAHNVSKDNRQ
# Sequence (P27986 whole entry partner, canonical isoform): as the sequence (P27986 whole entry partner, canonical isoform) above
# test_summary: Fluorescent (HTRF) determination of PI3K enzyme activity, δ isoform
# Assay type: biochemical
# Set-up: dose or concentration left out as unconfirmed

Here is how some compounds turned out for inhibition.
compound	inhibition
Cc1n[nH]c2cc(-c3nn(Cc4oc5ccccc5c(=O)c4-c4cccc(F)c4)c4ncnc(N)c34)ccc12 [Example 99]	50 to 100%
Cc1c[nH]c2ccc(-c3nn(C(C)c4oc5ccccc5c(=O)c4-c4cccc(F)c4)c4ncnc(N)c34)cc12 (stereo not drawn) [Example 101]	< 50%
Nc1ncnc2c1c(-c1cc(F)c(O)c(F)c1)nn2Cc1oc2ccc(F)cc2c(=O)c1-c1cccc(F)c1 [Example 127a]	< 50%

State the recorded inhibition for every item in the following list.
1. Nc1ncnc2c1ncn2Cc1oc2ccc(F)cc2c(=O)c1-c1cccc(F)c1 [Example 119]
2. CC(c1oc2ccccc2c(=O)c1-c1cccc(F)c1)n1nc(-c2ccc(Cl)s2)c2c(N)ncnc21 (stereo not drawn) [Example 152]
3. CC(c1oc2ccccc2c(=O)c1-c1cccc(F)c1)n1nc(-c2cc(O)ccc2Cl)c2c(N)ncnc21 (stereo not drawn) [Example 96a]

-- reply
1: < 50%; 2: < 50%; 3: 50 to 100%

Below are 6 compounds. Give each one its inhibition.
1. COc1ccc(-c2nn(C(C)c3oc4ccccc4c(=O)c3-c3cccc(F)c3)c3ncnc(N)c23)cc1OC (stereo not drawn) [Example 97]
2. CC(c1oc2ccccc2c(=O)c1-c1cccc(F)c1)n1nc(-c2ccc3c(c2)OCCCO3)c2c(N)ncnc21 (stereo not drawn) [Example 136]
3. CC(C)Oc1cccc(-c2nn(C(C)c3oc4ccccc4c(=O)c3-c3cccc(F)c3)c3ncnc(N)c23)c1 (stereo not drawn) [Example 163]
4. COc1ccc(-c2nn(C(C)c3oc4ccccc4c(=O)c3-c3cccc(F)c3)c3ncnc(N)c23)cc1F (stereo not drawn) [Example 84]
5. COc1cc(-c2nn(C(C)c3oc4ccccc4c(=O)c3-c3cccc(F)c3)c3ncnc(N)c23)ccc1F (stereo not drawn) [Example 82]
6. CC(c1oc2ccccc2c(=O)c1-c1cccc(F)c1)n1nc(-c2cccc(C(=O)N3CCOCC3)c2)c2c(N)ncnc21 (stereo not drawn) [Example 177]

-- reply
50 to 100%
< 50%
< 50%
50 to 100%
50 to 100%
< 50%

Batch: inhibition for all items listed.
1. Nc1ncnc2c1c(-c1cc(O)cc(F)c1)nn2Cc1oc2ccc(F)cc2c(=O)c1-c1cccc(F)c1 [Example 120a]
2. CC(c1oc2ccccc2c(=O)c1-c1cccc(F)c1)n1nc(-c2ccc(N)cc2)c2c(N)ncnc21 (stereo not drawn) [Example 107a]
3. COc1ccc(NC(C)c2oc3ccc(F)cc3c(=O)c2-c2cccc(F)c2)cc1 (stereo not drawn) [Example 165]

-- reply
["50 to 100%", "< 50%", "< 50%"]

----------
Please respond with reported melting point for every item in the list.

Please review the entries below; each comes with its answer.
compound	melting point
O=c1c(-c2cccc(F)c2)c(CNc2ncnc3[nH]cnc23)oc2ccc(F)cc12	229 to 232 °C
Nc1ncnc2c1ncn2Cc1oc2ccccc2c(=O)c1-c1ccccc1F	202 to 205 °C
CCC(c1oc2ccccc2c(=O)c1-c1cccc(F)c1)n1cnc2c(N)ncnc21 (stereo not shown)	102 to 107 °C

Now for another entry.
-- ask Record request: melting point value, item COc1cc(F)cc(-c2nn(Cc3oc4ccccc4c(=O)c3-c3cccc(F)c3)c3ncnc(N)c23)c1
-- reply 115 to 117 °C

----------
# target_entity: P110 δ/Pi3K δ (Homo sapiens)
# test_summary: Fluorescent (HTRF) determination of PI3K enzyme activity, δ isoform
# Type: biochemical
measured_endpoint: inhibition at 1 µM

compound	inhibition at 1 µM
CC(c1oc2ccccc2c(=O)c1-c1ccccc1)n1nc(-c2cn[nH]c2)c2c(N)ncnc21 (stereo not shown)	50 to 100%

Provide each entry's inhibition at 1 µM from the list below.
1. C[C@H](Nc1ncnc2[nH]cnc12)c1oc2ccc(F)cc2c(=O)c1-c1ccccc1
2. C[C@H](Nc1ncnc2[nH]cnc12)c1oc2ccc(Br)cc2c(=O)c1-c1ccccc1

-- reply
1: 50 to 100%; 2: < 50%

-- ask So what's the measured inhibition at 1 µM for this one? O=c1c(-c2ccccc2)c(CNc2ncnc3[nH]cnc23)oc2ccccc12
-- reply < 50%

----------
Can you tell me melting point for the items I'm about to list?

molecule	melting point
CC(c1oc2ccccc2c(=O)c1-c1cccc(F)c1)n1nc(-c2ccco2)c2c(N)ncnc21 (stereo not shown) [Example 155]	234 to 236 °C
CC(c1oc2ccccc2c(=O)c1-c1cccc(F)c1)n1nc(-c2cn[nH]c2)c2c(N)ncnc21 (stereo not shown) [Example 72]	223 to 226 °C
Cc1n[nH]c2cc(-c3nn(C(C)c4oc5ccccc5c(=O)c4-c4ccccc4)c4ncnc(N)c34)ccc12 (stereo not shown) [Example 104]	249 to 252 °C
CC(c1oc2ccccc2c(=O)c1-c1cccc(F)c1)n1nc(-c2ccc(Oc3ccccc3)cc2)c2c(N)ncnc21 (stereo not shown) [Example 139]	218 to 220 °C
COc1ccc2oc(Cn3cnc4c(N)ncnc43)c(-c3ccccc3)c(=O)c2c1 [Example 27]	197 to 198 °C
Cc1n[nH]c2cc(-c3nn(C(C)c4oc5ccccc5c(=O)c4-c4cccc(F)c4)c4ncnc(N)c34)ccc12 (stereo not shown) [Example 79]	214 to 217 °C
CC(c1oc2ccccc2c(=O)c1-c1ccccc1)n1cnc2c(N)ncnc21 (stereo not shown) [Example 23]	254 to 257 °C
Cl.O=c1c(-c2ccccc2)c(CN2CCOCC2)oc2ccccc12 [Example 4a]	208 to 209 °C
Nc1ncnc2c1c(-c1cc(O)cc(F)c1)nn2Cc1oc2ccc(F)cc2c(=O)c1-c1cccc(F)c1 [Example 120a]	127 to 129 °C
CC(c1oc2ccccc2c(=O)c1-c1cccc(F)c1)n1nc(-c2ccc(S(C)(=O)=O)cc2)c2c(N)ncnc21 (stereo not shown) [Example 149]	259 to 262 °C

Quick batch: melting point for everything below.
1. C[C@H](Nc1ncnc2[nH]cnc12)c1oc2ccc(F)cc2c(=O)c1-c1ccccc1 [Example 57]
2. O=c1c(-c2ccccc2)c(CNc2ncnc3[nH]cnc23)oc2ccccc12 [Example 43]
3. O=c1c(-c2cccc(F)c2)c(CNc2ncnc3[nH]cnc23)oc2ccccc12 [Example 46]
4. Cc1n[nH]c2ccc(-c3nn(C(C)c4oc5ccccc5c(=O)c4-c4cccc(F)c4)c4ncnc(N)c34)cc12 (stereo not shown) [Example 106]
5. Cl.O=c1c(-c2ccc(F)cc2)c(CN2CCOCC2)oc2ccc(Br)cc12
6. CC(C)Oc1ccc(-c2nn(C(C)c3oc4ccccc4c(=O)c3-c3cccc(F)c3)c3ncnc(N)c23)cc1Cl (stereo not shown) [Example 141]

-- reply
1. 196 to 198 °C
2. 155 to 158 °C
3. 211 to 214 °C
4. 254 to 256 °C
5. 232 to 236 °C
6. 198 to 200 °C
